# assay.name: Trained sensory panel rating of sweetness and bitterness intensity, Example 2 (measured values, S/B)
# Assay type: in vivo
# settings: 400 ppm; sweetness/bitterness ratio
measurement.label: Measured S/B
One number for each entry.

Provide measured Measured S/B value, entry: C=C1C[C@@]23CC[C@H]4[C@@](C)(CCC[C@@]4(C)C(=O)O[C@@H]4O[C@H](CO)[C@@H](O)[C@H](O[C@@H]5O[C@H](CO)[C@@H](O)[C@H](O)[C@H]5O)[C@H]4O[C@@H]4O[C@@H](C)[C@H](O)[C@@H](O[C@@H]5O[C@H](CO)[C@@H](O)[C@H](O)[C@H]5O)[C@H]4O)[C@@H]2CC[C@]1(O[C@@H]1O[C@H](CO)[C@@H](O)[C@H](O[C@@H]2O[C@H](CO)[C@@H](O)[C@H](O)[C@H]2O)[C@H]1O[C@@H]1O[C@H](CO)[C@@H](O)[C@H](O)[C@H]1O)C3 [Reb O, Rebaudioside O] 2.51
